Test system: human abdominal skin explants
protocol_summary: Cutaneous distribution and mass balance of radioactivity in human skin explants
measurement_conditions: human skin, end of incubation (24 h), mean ± SD
quantity_name: Skin radioactivity

// known answers, use as guide
compound	quantity_name	observed_result
CCOc1ccc2ccc(=O)oc2c1 [7‐EC, 7‐ethoxycoumarin]	Skin radioactivity	24.1 ± 6.2 % of the applied dose
Cn1c(N)nc2c3cccnc3ccc21 [IQ, 2‐amino‐3‐methylimidazo[4,5‐f]quinoline]	Skin radioactivity	66.0 ± 12.3 % of the applied dose
Nc1ccc(O)cc1[N+](=O)[O-] [4‐A‐3‐NP, 4‐amino‐3‐nitrophenol]	Skin radioactivity	28.6 ± 4.5 % of the applied dose
OCC=Cc1ccccc1 [Cinnamyl alcohol]	Skin radioactivity	16.2 ± 3.2 % of the applied dose
Cn1c(=O)c2c(ncn2C)n(C)c1=O [Caffeine]	Skin radioactivity	21.8 ± 2.5 % of the applied dose

Now take the following compound into account.
[ask] # get_value(readout='Skin radioactivity', item= CC(=O)Nc1ccc2c(c1)Cc1ccccc1-2 [2‐AAF, 2‐acetyl aminofluorene] )
[reply] 40.5 ± 5.5 % of the applied dose

====

Test system: pig ear skin explants
protocol_summary: Cutaneous distribution and mass balance of radioactivity in pig skin explants
measurement_conditions: pig skin, end of incubation (48 h), mean ± SD
Consider the following compounds; for each one, report its Medium radioactivity.

// known answers, use as guide
compound	quantity_name	observed_result
Nc1ccc(O)cc1[N+](=O)[O-] [4‐A‐3‐NP, 4‐amino‐3‐nitrophenol]	Medium radioactivity	69.9 ± 5.8 % of the applied dose
Cn1c(N)nc2c3cccnc3ccc21 [IQ, 2‐amino‐3‐methylimidazo[4,5‐f]quinoline]	Medium radioactivity	54.8 ± 8.3 % of the applied dose
OCC=Cc1ccccc1 [Cinnamyl alcohol]	Medium radioactivity	87.1 ± 2.7 % of the applied dose
CC(=O)Nc1ccc2c(c1)Cc1ccccc1-2 [2‐AAF, 2‐acetyl aminofluorene]	Medium radioactivity	73.9 ± 1.1 % of the applied dose
COc1cc(C=O)ccc1O [Vanillin]	Medium radioactivity	77.4 ± 5.1 % of the applied dose

Quick batch: Medium radioactivity for everything below.
1. CCOc1ccc2ccc(=O)oc2c1 [7‐EC, 7‐ethoxycoumarin]
2. Oc1cccc(O)c1 [Resorcinol]

[reply]
1. 89.7 ± 3.4 % of the applied dose
2. 71.0 ± 7.1 % of the applied dose

====

Test system: pig ear skin explants
protocol_summary: Cutaneous distribution and mass balance of radioactivity in pig skin explants
measurement_conditions: pig skin, 48 h, 2.4 nmol/cm^2
Consider the following compounds; for each one, report its Mass balance (% of applied dose at end of incubation).

// known answers, use as guide
compound	target	observed_result
CCOc1ccc2ccc(=O)oc2c1 [7‐EC, 7‐ethoxycoumarin]	pig ear skin explants	100.0 ± 3.8 % of applied dose
CC(=O)Nc1ccc2c(c1)Cc1ccccc1-2 [2‐AAF, 2‐acetyl aminofluorene]	pig ear skin explants	87.8 ± 1.1 % of applied dose
Cn1c(=O)c2c(ncn2C)n(C)c1=O [Caffeine]	pig ear skin explants	109.2 ± 3.3 % of applied dose
Nc1ccc(O)cc1[N+](=O)[O-] [4‐A‐3‐NP, 4‐amino‐3‐nitrophenol]	pig ear skin explants	96.0 ± 2.6 % of applied dose

Now take the following compound into account.
[ask] # get_value(readout='Mass balance (% of applied dose at end of incubation)', item= Cn1c(N)nc2c3cccnc3ccc21 [IQ, 2‐amino‐3‐methylimidazo[4,5‐f]quinoline] )
[reply] 96.3 ± 6.6 % of applied dose

====

System: human abdominal skin explants
protocol_summary: Cutaneous distribution and mass balance of radioactivity in human skin explants
measurement_conditions: human skin, 24 h
quantity_name: % Radioactivity in culture media after 24 h (%)
One number for each entry, in %.

Quick batch: % Radioactivity in culture media after 24 h for everything below.
1. Nc1ccc(Cl)cc1
2. CC(=O)Nc1ccc2c(c1)Cc1ccccc1-2

[reply]
[49.7, 48.3]

Quick batch: % Radioactivity in culture media after 24 h for everything below.
1. OCC=Cc1ccccc1
2. Cn1c(N)nc2c3cccnc3ccc21 [IQ, 2‐amino‐3‐methylimidazo[4,5‐f]quinoline]
3. COc1cc(C=O)ccc1O
4. Nc1ccc(O)cc1[N+](=O)[O-]

[reply]
[83.5, 10.5, 60.0, 62.3]

[ask] # get_value(readout='% Radioactivity in culture media after 24 h', item= "Cn1c(=O)c2c(ncn2C)n(C)c1=O" )
[reply] 81.4
